Numbers sourced from ChEMBL document CHEMBL5329156.

Tested on: Aspergillus terreus
assay-name: Antifungal activity against Aspergillus terreus ATCC MYA-3633 assessed as fungal growth inhibition by double dilution method
Type: functional
So basically, if MIC comes in under 2 µg/mL it's t, and if it's 2 µg/mL or more it's f.

Look over these answered cases.
INSERT INTO assay_data (compound_structure, category_label) VALUES
  ('COc1cccc(NNC(=O)c2cccc(F)n2)c1', 'f'),
  ('COc1ccc(NNC(=O)c2cccc(F)n2)cc1', 'f'),
  ('COc1ccc(NNC(=O)c2ccc(F)cn2)cc1', 'f'),
  ('COc1cccc(NNC(=O)c2ccccn2)c1', 'f'),
  ('O=C(NNc1ccc(F)cc1F)c1ccccn1', 't'),
  ('O=C(NNc1cccc(Cl)c1)c1ccccn1', 't'),
  ('O=C(NNc1ccc(F)cc1)c1ccc(F)cc1F', 'f');

# ---- query compound ----
Decide: MIC of O=C(NNc1cccc(F)c1)c1ccc(Br)cn1 strictly below 2 µg/mL? t

* * *

System: Candida duobushaemulonii
assay-name: Antifungal activity against Candida duobushaemulonii AR Bank # 394 assessed as fungal growth inhibition by double dilution method
Format: functional
condition-info: Candidozyma duobushaemuli
MIC overview
Report the figure in µg/mL without appending any unit label.

Worked examples follow.
INSERT INTO results (compound_structure, unit_abbrev, value_measured) VALUES
  ('O=C(NNc1cc(Cl)cc(Cl)c1)c1ccccn1', 'µg/mL', 0.49),
  ('O=C(NNc1ccc(Cl)cc1)c1cnccn1', 'µg/mL', 1.95),
  ('O=C(NNc1ccc(Cl)cc1)c1ccccn1', 'µg/mL', 0.4);

Fill blank: measured MIC of the molecule COc1ccc(NNC(=O)c2ccccn2)cc1 is ____. 0.98

Fill blank: measured MIC of the molecule O=C(NNc1ccc(F)cc1)c1ccccn1 is ____. 0.24

Fill blank: measured MIC of the molecule O=C(NNc1ccc(F)cc1F)c1ccccn1 is ____. 3.9

* * *

Test system: Aspergillus terreus
assay-name: Antifungal activity against Aspergillus terreus ATCC MYA-3633 assessed as fungal growth inhibition by double dilution method
Type: functional
metric: MIC (µg/mL)
Report the figure in µg/mL without appending any unit label.

Worked examples follow.
INSERT INTO results (compound_structure, metric, value_measured) VALUES
  ('O=C(NNc1cc(Cl)cc(Cl)c1)c1ccccn1', 'MIC', 1.95),
  ('O=C(NNc1cccc(F)c1)c1ncc(F)cc1F', 'MIC', 3.9),
  ('O=C(NNc1cc(F)ccc1F)c1ccccn1', 'MIC', 0.98),
  ('O=C(NNc1cccc(Cl)c1)c1cnccn1', 'MIC', 0.98),
  ('COc1ccc(NNC(=O)c2nc(F)ccc2F)cc1', 'MIC', 31.3),
  ('COc1cccc(NNC(=O)c2ccc(F)cn2)c1', 'MIC', 3.9),
  ('O=C(NNc1cccc(F)c1)c1ccccn1', 'MIC', 1.95),
  ('COc1cccc(NNC(=O)c2cccc(Br)n2)c1', 'MIC', 1.95),
  ('COc1ccc(NNC(=O)c2ccc(F)cc2F)cc1', 'MIC', 31.3),
  ('O=C(NNc1cccc(F)c1)c1nc(F)ccc1F', 'MIC', 3.9);

Fill blank: measured MIC of the compound O=C(NNc1ccc(F)cc1)c1ccccn1 is ____. 1.95

* * *

System: [Candida] auris
assay-name: Antifungal activity against Candida auris AR Bank # 386 assessed as fungal growth inhibition by double dilution method
Type: functional
condition-info: Candidozyma auris
metric: MIC (µg/mL)
Report the figure in µg/mL without appending any unit label.

Worked examples follow.
INSERT INTO measurements (compound_structure, metric, unit_abbrev, value_measured) VALUES
  ('O=C(NNc1ccc(F)cc1F)c1cnccn1', 'MIC', 'µg/mL', 0.49),
  ('O=C(NNc1cccc(F)c1)c1ccccn1', 'MIC', 'µg/mL', 0.49),
  ('O=C(NNc1ccc(F)cc1)c1ccccn1', 'MIC', 'µg/mL', 0.49);

Fill blank: measured MIC of the compound COc1ccc(NNC(=O)c2cnccn2)cc1 is ____. 0.49

Fill blank: measured MIC of the compound C[C@@H]1[C@H](O)[C@@H](C)/C=C/C=C/C=C/C=C/C=C/C=C/C=C/[C@H](O[C@@H]2O[C@H](C)[C@@H](O)[C@H](N)[C@@H]2O)C[C@@H]2O[C@](O)(C[C@@H](O)C[C@@H](O)[C@H](O)CC[C@@H](O)C[C@@H](O)CC(=O)O[C@H]1C)C[C@H](O)[C@H]2C(=O)O is ____. 0.98

Fill blank: measured MIC of the compound O=C(NNc1ccc(F)cc1F)c1ccccn1 is ____. 0.49

Fill blank: measured MIC of the compound O=C(NNc1ccc(Cl)cc1)c1cnccn1 is ____. 7.8

Fill blank: measured MIC of the compound COc1cccc(NNC(=O)c2cnccn2)c1 is ____. 0.49

* * *

System: Candida duobushaemulonii
assay-name: Antifungal activity against Candida duobushaemulonii AR Bank # 392 assessed as fungal growth inhibition by double dilution method
Type: functional
condition-info: Candidozyma duobushaemuli
metric: MIC (µg/mL)
Report the figure in µg/mL without appending any unit label.

Fill blank: measured MIC of the compound O=C(NNc1cccc(Cl)c1)c1cnccn1 is ____. 0.12

Fill blank: measured MIC of the compound COc1cccc(NNC(=O)c2ccccn2)c1 is ____. 1.95

Fill blank: measured MIC of the compound O=C(NNc1ccc(Cl)cc1)c1cnccn1 is ____. 1.95

Fill blank: measured MIC of the compound O=C(NNc1ccc(Cl)cc1)c1ccccn1 is ____. 0.98

Fill blank: measured MIC of the compound COc1ccc(NNC(=O)c2ccccn2)cc1 is ____. 0.98

Fill blank: measured MIC of the compound O=C(NNc1cccc(F)c1)c1ccccn1 is ____. 0.24

* * *

System: Candida duobushaemulonii
assay-name: Antifungal activity against Candida duobushaemulonii AR Bank # 392 assessed as fungal growth inhibition by double dilution method
Format: functional
condition-info: Candidozyma duobushaemuli
metric: MIC (µg/mL)
Report the figure in µg/mL without appending any unit label.

Worked examples follow.
INSERT INTO measurements (compound_structure, value_measured) VALUES
  ('COc1cccc(NNC(=O)c2cnccn2)c1', 0.98),
  ('O=C(NNc1ccc(F)cc1)c1ccccn1', 0.49),
  ('C[C@@H]1[C@H](O)[C@@H](C)/C=C/C=C/C=C/C=C/C=C/C=C/C=C/[C@H](O[C@@H]2O[C@H](C)[C@@H](O)[C@H](N)[C@@H]2O)C[C@@H]2O[C@](O)(C[C@@H](O)C[C@@H](O)[C@H](O)CC[C@@H](O)C[C@@H](O)CC(=O)O[C@H]1C)C[C@H](O)[C@H]2C(=O)O', 7.8);

Candida duobushaemulonii / MIC / O=C(NNc1cc(Cl)cc(Cl)c1)c1ccccn1 : value? 0.98

Candida duobushaemulonii / MIC / O=C(NNc1ccc(F)cc1F)c1cnccn1 : value? 0.24

Candida duobushaemulonii / MIC / COc1ccc(NNC(=O)c2cnccn2)cc1 : value? 0.49

Candida duobushaemulonii / MIC / O=C(NNc1cc(F)ccc1F)c1ccccn1 : value? 0.24

Candida duobushaemulonii / MIC / O=C(NNc1cccc(Cl)c1)c1ccccn1 : value? 0.24

Candida duobushaemulonii / MIC / O=C(NNc1cc(F)cc(F)c1)c1ccccn1 : value? 0.49

Candida duobushaemulonii / MIC / O=C(NNc1ccc(F)cc1F)c1ccccn1 : value? 0.49

* * *

System: [Candida] auris
assay-name: Antifungal activity against Candida auris AR Bank # 386 assessed as fungal growth inhibition by double dilution method
Format: functional
condition-info: Candidozyma auris
metric: MIC (µg/mL)
Report the figure in µg/mL without appending any unit label.

Worked examples follow.
INSERT INTO results (compound_structure, metric, value_measured) VALUES
  ('O=C(NNc1cc(Cl)cc(Cl)c1)c1ccccn1', 'MIC', 0.98),
  ('COc1ccc(NNC(=O)c2ccccn2)cc1', 'MIC', 0.24);

Fill blank: measured MIC of the compound O=C(NNc1cc(F)ccc1F)c1ccccn1 is ____. 0.12

* * *

MIC overview
Test system: [Candida] auris
assay-name: Antifungal activity against Candida auris AR Bank # 383 assessed as fungal growth inhibition by double dilution method
Assay type: functional
condition-info: Candidozyma auris
Report the figure in µg/mL without appending any unit label.

Fill blank: measured MIC of the molecule O=C(NNc1cccc(F)c1)c1ccccn1 is ____. 1.95

Fill blank: measured MIC of the molecule C[C@@H]1[C@H](O)[C@@H](C)/C=C/C=C/C=C/C=C/C=C/C=C/C=C/[C@H](O[C@@H]2O[C@H](C)[C@@H](O)[C@H](N)[C@@H]2O)C[C@@H]2O[C@](O)(C[C@@H](O)C[C@@H](O)[C@H](O)CC[C@@H](O)C[C@@H](O)CC(=O)O[C@H]1C)C[C@H](O)[C@H]2C(=O)O [AMPHOTERICIN B] is ____. 1.95

Fill blank: measured MIC of the molecule O=C(NNc1cc(Cl)cc(Cl)c1)c1ccccn1 is ____. 1.95

Fill blank: measured MIC of the molecule O=C(NNc1ccc(F)cc1F)c1ccccn1 is ____. 0.49

Fill blank: measured MIC of the molecule O=C(NNc1cccc(Cl)c1)c1cnccn1 is ____. 0.24
